# System: MOLT-4 leukemia
# protocol description: NCI tumour cell line growth inhibition, 48 h
// reported GI50 per item

input: Record lookup: for MOLT-4 leukemia, what GI50 belongs to Oc1ccc(CCNc2nc3ccccc3c3[nH]c4ccccc4c23)cc1O ?
output: 2.16 µM

input: Record lookup: for MOLT-4 leukemia, what GI50 belongs to Cc1ccc(/C=C/C(=O)c2ccc(F)cc2)s1 ?
output: 3.39 µM

----------
// reported TGI per item
# System: A549 NSCLC
# protocol description: NCI tumour cell line growth inhibition, 48 h

Worked cases, answers included:
compound	TGI
CC1=C[C@H](C[C@]2(C)c3c(c4c(C)cccc4oc3=O)O[C@@H]2C)OC1=O	> 100 µM
Cc1c2ccccc2c(=O)n2c(-c3ccccn3)cccc12	> 100 µM
O=S1(=O)[C@H](c2ccccc2)c2c(-c3ccccc3)sc(-c3ccccc3)c2[C@@H]1c1ccccc1	> 100 µM
CN(C)N1C(=C(C#N)C#N)C(c2ccccc2)CC1C#N (stereo unspecified)	> 100 µM
O=c1c(-c2cccc3ccccc23)c(-c2cccc3ccccc23)c1=O	12 µM

// below: TGI requested for another compound
input: GET /values?readout=TGI&item= Fc1ccc(F)c(C=NC23CC4CC(CC(C4)C2)C3)c1
output: > 10 µM
